Biological target: EGFR (Homo sapiens, UniProt P00533)
Sequence (P00533 25-1210): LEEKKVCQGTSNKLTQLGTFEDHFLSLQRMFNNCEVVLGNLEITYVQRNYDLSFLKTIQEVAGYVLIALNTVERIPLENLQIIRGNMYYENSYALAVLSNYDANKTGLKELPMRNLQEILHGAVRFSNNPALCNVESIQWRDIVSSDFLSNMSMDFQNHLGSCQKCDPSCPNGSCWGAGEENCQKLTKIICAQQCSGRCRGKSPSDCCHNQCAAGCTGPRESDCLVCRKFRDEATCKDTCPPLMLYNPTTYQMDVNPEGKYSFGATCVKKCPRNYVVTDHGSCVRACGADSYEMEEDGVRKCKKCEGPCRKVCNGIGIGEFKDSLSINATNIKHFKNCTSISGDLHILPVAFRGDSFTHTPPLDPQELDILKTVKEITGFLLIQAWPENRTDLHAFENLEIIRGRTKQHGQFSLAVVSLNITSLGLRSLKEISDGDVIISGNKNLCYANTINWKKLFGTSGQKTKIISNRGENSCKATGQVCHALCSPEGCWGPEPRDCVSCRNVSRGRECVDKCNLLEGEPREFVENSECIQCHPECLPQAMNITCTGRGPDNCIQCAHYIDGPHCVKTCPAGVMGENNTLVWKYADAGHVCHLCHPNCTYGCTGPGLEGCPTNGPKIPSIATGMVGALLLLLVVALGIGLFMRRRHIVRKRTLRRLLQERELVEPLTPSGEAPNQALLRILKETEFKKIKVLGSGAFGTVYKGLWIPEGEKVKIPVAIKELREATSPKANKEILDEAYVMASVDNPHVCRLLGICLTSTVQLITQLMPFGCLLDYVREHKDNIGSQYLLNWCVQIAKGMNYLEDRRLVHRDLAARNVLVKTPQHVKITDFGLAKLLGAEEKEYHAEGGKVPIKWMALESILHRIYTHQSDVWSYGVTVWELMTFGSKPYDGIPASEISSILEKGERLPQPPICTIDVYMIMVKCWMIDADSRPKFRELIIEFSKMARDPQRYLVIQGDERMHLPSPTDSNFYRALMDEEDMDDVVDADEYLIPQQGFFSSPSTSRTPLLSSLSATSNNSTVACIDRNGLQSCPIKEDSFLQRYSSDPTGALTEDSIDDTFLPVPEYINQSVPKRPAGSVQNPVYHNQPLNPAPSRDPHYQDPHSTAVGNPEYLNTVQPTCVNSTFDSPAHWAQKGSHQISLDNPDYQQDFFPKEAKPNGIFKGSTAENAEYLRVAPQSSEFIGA
Assay: Inhibition of a panel of kinases, in vitro HotSpot kinase assay: EGFR
Assay type: biochemical
Settings: D-compounds panel data; 1 μM ATP
measured_metric: IC50

Ask | Returns the measured IC50 for the input compound. Input: Cn1cc(Nc2nc(N3C4CCC(NC(=O)c5ccc(C6CC6)cc5)C3CC4)cnc2C(N)=O)cn1 (single isomer, unassigned) [Example D-201]
Reply | 1000 to 10000 nM

Ask | Returns the measured IC50 for the input compound. Input: C[C@H]1CC[C@@H](NC(=O)c2ccc(C(C)(C)O)cc2)CN1c1cnc(C(N)=O)c(Nc2cnn(C)c2)n1
Reply | 100 to 1000 nM

Ask | Returns the measured IC50 for the input compound. Input: C[C@@H]1[C@H](NC(=O)c2ccc(C3CC3)cc2)CCCN1c1cnc(C(N)=O)c(Nc2ccc(OC(F)(F)F)cc2)n1
Reply | > 10000 nM

Ask | Returns the measured IC50 for the input compound. Input: C[C@@H]1[C@H](NC(=O)c2ccc(C3CC3)cc2F)CCCN1c1cnc(C(N)=O)c(Nc2cc(CN3CCOCC3)ns2)n1
Reply | 100 to 1000 nM

Ask | Returns the measured IC50 for the input compound. Input: C[C@@H]1[C@H](NC(=O)c2ccc(C3CC3)cc2)CCCN1c1cnc(C(N)=O)c(Nc2ccc(N3CCN(C)CC3)cc2)n1
Reply | 100 to 1000 nM

Ask | Returns the measured IC50 for the input compound. Input: Cc1cc(Nc2nc(N3CCC[C@@H](NC(=O)c4ccc(C5CC5)cc4F)C3)cnc2C(N)=O)on1
Reply | > 10000 nM

Ask | Returns the measured IC50 for the input compound. Input: C[C@@H]1[C@H](NC(=O)c2ccc(C(C)(O)CO)cc2)CCCN1c1cnc(C(N)=O)c(Nc2cnn(C)c2)n1 (single isomer, unassigned) [Example D-256]
Reply | 100 to 1000 nM

Ask | Returns the measured IC50 for the input compound. Input: C[C@@H]1[C@H](NC(=O)c2cnc(C3CC3)cn2)CCCN1c1cnc(C(N)=O)c(Nc2cnn(C)c2)n1
Reply | 100 to 1000 nM

Ask | Returns the measured IC50 for the input compound. Input: C[C@@H]1[C@H](NC(=O)N(C)C)CCCN1c1cnc(C(N)=O)c(Nc2ccc(CN3CCN(C)CC3)cc2)c1
Reply | > 10000 nM

Ask | Returns the measured IC50 for the input compound. Input: C[C@@H]1[C@H](NC(=O)c2ccc(C(C)(C)O)cc2F)CCCN1c1nnc(C(N)=O)c(Nc2cnn(C)c2)n1
Reply | 1000 to 10000 nM

Ask | Returns the measured IC50 for the input compound. Input: C[C@@H]1[C@H](NC(=O)c2ccc(C3CC3)cc2)CCCN1c1cnc(C(N)=O)c(Nc2ccc(N3CCN(C)CC3)c(F)c2)n1
Reply | 100 to 1000 nM

Ask | Returns the measured IC50 for the input compound. Input: CN(C)C(=O)N[C@H]1CCCN(c2cnc(C(N)=O)c(Nc3ccc4ncccc4c3)n2)[C@@H]1CO (racemic)
Reply | > 10000 nM

Ask | Returns the measured IC50 for the input compound. Input: Cc1nc2cc(C(=O)N[C@@H]3CCCN(c4cnc(C(N)=O)c(Nc5cnn(C)c5)n4)[C@@H]3C)ccc2o1
Reply | 100 to 1000 nM
